Tested on: LTD4 evoked ileal contractions (guinea pig ileum)
protocol.summary: Inhibition of LTD4 evoked contractions in isolated ileum (single submaximal LTD4 response, five minute drug exposure)
Assay type: cell-based, Male, Hartley guinea pigs
test.settings: Cavia porcellus; Compound concentration 1 × 10^-6 M; read-out: Percent inhibition of LTD4 evoked ileal contractions
Outcome: T for inhibition at 1 µM of at least 80%; F for anything lower.

{"columns": ["smiles.record", "target.desc", "class.label"],
 "data": [
  ["CCCc1c(OCCCCCc2nnn[nH]2)ccc(Cl)c1Cl", "LTD4 evoked ileal contractions (guinea pig ileum)", "F"],
  ["CCCCCc1c(OCCCCCC(=O)O)ccc(Cl)c1Cl", "LTD4 evoked ileal contractions (guinea pig ileum)", "F"],
  ["CCCc1c(OCCCCc2nnn[nH]2)ccc(Cl)c1Cl", "LTD4 evoked ileal contractions (guinea pig ileum)", "T"],
  ["CCCCCCCCc1c(OCCCCCCc2nnn[nH]2)ccc(Cl)c1Cl", "LTD4 evoked ileal contractions (guinea pig ileum)", "F"],
  ["CCCc1c(OCCCCCC(=O)O)ccc(Cl)c1Cl", "LTD4 evoked ileal contractions (guinea pig ileum)", "F"],
  ["CCCc1c(OCCCCCCc2nn[nH]n2)ccc(Cl)c1Cl", "LTD4 evoked ileal contractions (guinea pig ileum)", "T"]
]}
